tested on: HOP-18; assay: NCI tumour cell line growth inhibition, 48 h
The source made the active and inactive calls. No stated cut-off is given here; in the data, active = GI50 up to about 1.1 µM and inactive = higher.
Recorded GI50, one value per entry.

[
  {
    "Molecule": "Cc1ccc(-c2cc(-c3ccco3)c(C#N)c(=O)n2C2OC(OC(=O)c3ccccc3)C(OC(=O)c3ccccc3)C2OC(=O)c2ccccc2)cc1 (stereo not given)",
    "Value kind": "GI50",
    "Observed": "> 100 µM (inactive)"
  },
  {
    "Molecule": "COC1=CC(=O)C(O)=C(CC2(C)C(C)CCC3(C)C2CCCC3(C)C)C1=O (stereo not given)",
    "Value kind": "GI50",
    "Observed": "2.65 µM (inactive)"
  },
  {
    "Molecule": "CCc1cccc(C)c1NC(=O)CC(=O)NNC(N)=S",
    "Value kind": "GI50",
    "Observed": "> 100 µM (inactive)"
  },
  {
    "Molecule": "COC(=O)C(C(=O)C(=O)Nc1c(C)cccc1C)c1cnc2ccccc2n1 (stereo not given)",
    "Value kind": "GI50",
    "Observed": "> 100 µM (inactive)"
  },
  {
    "Molecule": "COc1cc([C@@H]2c3cc4c(c(O)c3C[C@H]3COC(=O)[C@@H]32)OCO4)cc(OC)c1OC [BETA-PELTATIN A]",
    "Value kind": "GI50",
    "Observed": "1.26 µM (inactive)"
  },
  {
    "Molecule": "O=c1[nH]c(=O)n(C2CC(O)C(O)C(CO)O2)cc1F (stereo not given)",
    "Value kind": "GI50",
    "Observed": "> 100 µM (inactive)"
  }
]

Any idea what its GI50 is? The molecule is COc1ccc(NC(=O)CSc2nnc(-c3ccc(/N=C\c4ccc(Cl)cc4)cc3)o2)cc1
12.5 µM (inactive)

What would you report for COc1cc(C2C(Cl)C(=O)N2n2cnc3ccccc3c2=O)ccc1O (stereo not given) ?
56.6 µM (inactive)

Lookup C[C@@H]1OC2(O)[C@H]3CCCN3S(=O)(=O)CCN2C1=O (stereo not given in full)
> 100 µM (inactive)

Also CC1=C(/C=C/C2=CC(=C\C(=O)O)/CC(C3=C(C)CCCC3(C)C)C2)C(C)(C)CCC1 (stereo not given) ?
14 µM (inactive)
